- assayOverview: Plasma pharmacokinetics of clorsulon in lactating Assaf sheep
- Format: in vivo
- runConditions: female, sc, clorsulon 2 mg/kg s.c., alone or with ivermectin or abamectin 0.2 mg/kg s.c., mean ± SD, n = 6, read-out: T1/2 of clorsulon in plasma (converted)
assayReadout: half-life (h)
// return numeric value only (unit: h, not printed)

Query: Name the recorded half-life for Nc1cc(C(Cl)=C(Cl)Cl)c(S(N)(=O)=O)cc1S(N)(=O)=O [Clorsulon] .
Result: 19

---

- assayOverview: Plasma pharmacokinetics of clorsulon in lactating Assaf sheep
- Type: in vivo
- runConditions: female, sc, clorsulon 2 mg/kg s.c., alone or with ivermectin or abamectin 0.2 mg/kg s.c., mean ± SD, n = 6
assayReadout: AUC(0-inf)
For clarity, give the value followed by its unit.

Query: Name the recorded AUC(0-inf) for `Nc1cc(C(Cl)=C(Cl)Cl)c(S(N)(=O)=O)cc1S(N)(=O)=O` .
Result: 43300 ng·h/mL
